Below is a list of entries, each paired with its recorded melting point value.
OBSERVABLE: melting point

COMPOUND	MEASURED VALUE
Nc1ncc(-c2ccc(F)c(Cl)c2)nc1C(=O)Nc1cccnc1 [Example 16]	236 to 238.5 °C
Nc1ncc(-c2ccc(F)cc2)nc1C(=O)Nc1cccnc1 [Example 10]	193 to 197 °C
Nc1ncc(-c2ccc(F)cc2F)nc1C(=O)Nc1cccnc1 [Example 14]	232 to 234 °C
Nc1ncc(-c2ccc(F)c(F)c2)nc1C(=O)Nc1cccnc1 [Example 15]	232 to 234 °C
Nc1ncc(-c2cccs2)nc1C(=O)Nc1cccnc1 [Example 6]	178 to 189 °C
Nc1ncc(-c2ccccc2F)nc1C(=O)Nc1cccnc1 [Example 20]	221 to 225 °C
Cc1cc(-c2cnc(N)c(C(=O)Nc3cccnc3)n2)ccc1F [Example 17]	186 to 189 °C
Nc1ncc(-c2cccc(F)c2)nc1C(=O)Nc1cccnc1 [Example 19]	234.5 to 238 °C
Nc1ncc(-c2cccc(Cl)c2Cl)nc1C(=O)Nc1cccnc1 [Example 12]	239 to 241 °C
Cc1ccc(-c2cnc(N)c(C(=O)Nc3cccnc3)n2)cc1C [Example 18]	178 to 182 °C
